tested on: arachidonic acid-induced ear swelling; assay: Topical arachidonic acid-induced ear swelling model in mice (topical application); format: in vivo, mice (male ICR); conditions: Table 6, test compounds 375 mM, indomethacin 14 mM (0.5% w/v), 20 μL applied 30 min before and 15 min after arachidonic acid, measured at 90 minutes
REPORTED METRIC: % Inhibition (ear swelling)

Solved cases (4 shown):
>>> result("N#CCCS(=O)(=O)c1ccc2ccccc2c1")
"25%"
>>> result("Cc1ccc(S(=O)(=O)CCC#N)cc1")
"44%"
>>> result("N#CCCS(=O)(=O)c1ccccc1")
"36%"
>>> result("COc1ccc2c(c1)c(CC(=O)O)c(C)n2C(=O)c1ccc(Cl)cc1 [Indomethacin, reference compound]")
"57%"

Alright, here's another compound for you.
Look up % Inhibition (ear swelling) with arachidonic acid-induced ear swelling for this compound: N#CCCS(=O)(=O)c1ccc(Cl)cc1 20%
